test_description: Primary fluorescence-based thiol-reactive (MSTI) qHTS assay for identification of artifact compounds. (AID 1845221); further: nearly all actives have a fitted effect of over 65% in size
condition_info: MSTI thiol-reactivity probe, 1 h; series mostly up to 53.8 µM
Inconclusive results are not listed. Active and inactive are the calls of the source. The call rests on the fitted dose curve; in most records, active means well fitted inhibition curve with a large enough effect; inconclusive means small, poorly fitted or top-dose-only effect; inactive means no such curve, though single readings can be large or run the other way.
Would you mind answering with one of these outcomes? true (1) for active, false (0) for inactive

Worked examples, 4 molecules total:
                                   molecule      label
0  CO[C@H]1/C=C/[C@@](C)(O)/C=C/C(=O)O[C@H](C)[C@@H](C)CC/C=C/1C  false (0)
1  COc1cc(C2c3cc4c(c(O)c3CC(CO)C2C(=O)O)OCO4)cc(OC)c1O (configuration not stated)   true (1)
2  CC(C)S(=O)(=O)N[C@H]1CCOC[C@@H]1c1ccc(-c2ccc(C#N)s2)cc1  false (0)
3  Cn1cc(-c2ccc3nnc(Sc4ccc5nn(C)cc5c4)n3n2)cn1  false (0)

**Query** Write down the call the test reported for this molecule. Item: CCn1c(=O)c(-c2ccn[nH]2)cc2c(C)nc(N)nc21
**Result** false (0)

**Query** Write down the call the test reported for this molecule. Item: CC12CCC3c4ccc(O)cc4CCC3C1CC(OC1OC(C(=O)O)C(O)C(O)C1O)C2O (configuration not stated)
**Result** false (0)

**Query** Write down the call the test reported for this molecule. Item: Cn1cc(S(=O)(=O)c2ccc(Cl)cc2)c2cccc(N3CCNCC3)c21
**Result** false (0)
